pIC50: −log10 of the molar value.
The molecules below have reported pIC50 for UniProtKB O75907.
Sequence (O75907 whole entry): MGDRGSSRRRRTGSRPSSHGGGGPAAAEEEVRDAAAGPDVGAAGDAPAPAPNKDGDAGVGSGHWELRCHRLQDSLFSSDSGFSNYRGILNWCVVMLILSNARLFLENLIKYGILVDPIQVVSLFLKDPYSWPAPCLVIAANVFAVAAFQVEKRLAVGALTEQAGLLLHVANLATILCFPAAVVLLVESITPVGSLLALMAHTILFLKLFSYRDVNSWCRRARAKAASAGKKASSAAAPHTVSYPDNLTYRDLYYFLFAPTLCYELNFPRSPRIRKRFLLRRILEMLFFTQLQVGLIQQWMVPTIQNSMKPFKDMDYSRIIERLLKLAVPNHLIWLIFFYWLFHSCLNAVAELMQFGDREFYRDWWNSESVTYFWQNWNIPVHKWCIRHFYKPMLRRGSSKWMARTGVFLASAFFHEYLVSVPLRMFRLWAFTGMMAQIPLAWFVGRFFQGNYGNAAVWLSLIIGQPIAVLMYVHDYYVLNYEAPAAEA

{"MOLECULE": "O=C(Nc1nc(-c2ccccc2)c(Cc2ccccc2)s1)[C@@H]1CCCN1C(=O)Nc1ccc(C(F)(F)F)cc1F [Example 4-9]", "pIC50": 6.33}
{"MOLECULE": "CC1(C(=O)NC(C)(C)C(=O)Nc2nc(C(F)(F)F)c(C(=O)c3ccc(F)cc3)s2)CC1 [Example 12-3]", "pIC50": 5.93}
{"MOLECULE": "CC(C)(NC(=O)c1ccc(OC(F)(F)F)cc1)C(=O)Nc1nc(-c2ccc(F)cc2)c(Oc2ccc(F)cc2)s1 [Example 6-1]", "pIC50": 6.04}
{"MOLECULE": "Cc1ccccc1NC(=O)N1CCCC1C(=O)Nc1nc(-c2ccccc2)c(Cc2ccccc2)s1 (stereo not shown) [Example 4-2]", "pIC50": 6.64}
